Source: ChEMBL document CHEMBL4414644

Please provide measured CC50 at 120 h for the entries that follow.
- Test Details: Cytotoxicity in human HepDE19 cells assessed as reduction in cell viability incubated for 5 days by CCK8 assay
- Type: cell-based

Some compounds with known CC50 at 120 h results, for comparison:
COC(=O)C1=C(CN2CCOC[C@H]2C(=O)O)NC(c2nccs2)=N[C@H]1c1ccc(Cl)c(F)c1: > 100 µM
CCOC(=O)C1=C(CN2CCOC[C@H]2C(=O)O)NC(c2nccs2)=N[C@H]1c1ccc(Br)c(F)c1: 14 µM
COC(=O)C1=C(CN2CCOC[C@H]2C(=O)O)N=C(c2nccs2)N[C@H]1c1ccc(F)cc1Cl: > 100 µM
CCOC(=O)C1=C(CN2CCOC[C@H]2C(=O)O)NC(c2nccs2)=N[C@H]1c1ccc(F)c(F)c1: > 100 µM
CCOC(=O)C1=C(CN2CCOC[C@H]2C(=O)O)NC(c2nccs2)=N[C@H]1c1cccc(F)c1: 69 µM
CCOC(=O)C1=C(CN2CC(F)(F)C[C@H]2C(=O)O)NC(c2nccs2)=N[C@H]1c1ccc(F)cc1Cl: > 100 µM

# map each compound to its CC50 at 120 h
1. CCOC(=O)C1=C(CN2CCOC[C@H]2C(=O)O)NC(c2nccs2)=N[C@H]1c1ccc(F)cc1Cl
2. CCOC(=O)C1=C(CN2CCOC[C@H]2C(=O)O)NC(c2nccs2)=N[C@H]1c1cc(F)c(F)c(F)c1
3. CCOC(=O)C1=C(CN2CCOC[C@H]2C(=O)O)NC(c2nccs2)=N[C@H]1c1ccc(F)cc1F

["> 100 µM", "> 100 µM", "> 100 µM"]

Report CC50 at 120 h for each item below.
1. CCOC(=O)C1=C(CN2CCOC[C@H]2C(=O)O)NC(c2nccs2)=N[C@H]1c1ccc(F)cc1
2. COC(=O)C1=C(CN2CC(F)(F)C[C@H]2C(=O)O)NC(c2nccs2)=N[C@H]1c1ccc(F)c(F)c1

1. 62 µM
2. 56 µM

###

- Test Details: Cytotoxicity in human HepDE19 cells assessed as reduction in cell viability incubated for 5 days by CCK8 assay
- Type: cell-based
Consider the following molecules; for each one, report its CC50 at 120 h.

COC(=O)C1=C(CN2CC(F)(F)C[C@H]2C(=O)O)NC(c2nccs2)=N[C@H]1c1ccc(F)cc1F: > 100 µM
COC(=O)C1=C(CN2CCOC[C@H]2C(=O)O)NC(c2nccs2)=N[C@H]1c1ccc(C)c(F)c1: > 100 µM

Shifting focus to the molecule that follows.
Lab note: COC(=O)C1=C(CN2CCOC[C@H]2C(=O)O)NC(c2nccs2)=N[C@H]1c1ccc(F)c(F)c1 gave CC50 at 120 h of > 100 µM
